B1: tRNA (parent)
chain: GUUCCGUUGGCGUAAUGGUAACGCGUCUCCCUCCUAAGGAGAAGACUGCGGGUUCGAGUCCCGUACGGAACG

Variants of: B1
protocol notes: yeast fitness relative to wild type (ratio to wild type); higher = fitter; tRNA-Arg(CCU), competitive growth, 37 C, YPD
Fewer inactive variants are shown than the library holds.
Entries and their yeast fitness values follow.
measured endpoint: yeast fitness

- G9A A20U C22G: 0.53
- U2C U47A: 0.982
- U3A G9A C29G: 0.585
- C34A C55U: 0.524
- U3C A70U: 1.01
- G18A C30G G38C: 0.529
- U16A C55A: 0.699
- C34U A40C A43G: 0.513
- G12C A43U: 0.892
- U3A G6A C46U: 0.638
- U16A A37G C62U: 0.543
- C5U C11U A57U: 0.544
- A15G G17A: 0.881
- A20G G52C: 0.613
- U19C A45U: 0.923
- C24U A37U A40U: 0.568
- U35C G39A: 0.886
- C5U C31G C33G C34U C49U G68A: 0.543
- U26A C30A A37C A43U G51C: 0.595
- A40G U53A: 0.654
- U19A C60G A70C: 0.502
- C29A A70U: 0.891
- C4G C33G A40G: 0.528
- A15C U19C A65C: 0.628
- A42C U54A G67C A69U: 0.571
- U2G G68C: 0.705
- C49A A69C: 0.709
- G23C C27U C29U G51A: 0.645
- U2C A20U: 0.91
- G18A G44C A65U: 0.537
- G23C U53A: 0.55
- A37U G63C: 0.591
- C5U A43G G48A: 0.678
- C22U G38A: 0.748
- C33G U53A: 0.65
- G25C C29G A43G C49G: 0.647
- C30G A40U C46U: 0.558
- U16C A40C A57U: 0.575
- C29G C55G: 0.538
- A14U C46A: 0.599
- U32G G39C A43G G52C: 0.571
- A42G A57G: 0.768
- U19A C24G: 0.633
- G50C C55G: 0.56
- U8C C66U: 0.892
- U7A U16C A21U U26A C46U: 0.681
- C5G A15U A20U A40C G67A: 0.538
- G9A C66G: 0.703
